Reported growth inhibition by item:
Measurement protocol: NCI Yeast Anticancer Drug Screen. Data for the mlh1 rad18 strain (AID 175)
Assay setup: S. cerevisiae mlh1 rad18 strain growth inhibition; at 50.0 µM; active compounds read high
Method: Growth inhibition of yeast strains with defined genetic alterations is measured as a screen for potential anti-cancer activity. Selected strains with alterations in DNA damage repair or cell cycle control were exposed to compounds and growth inhibition was measured relative to vehicle treated controls. The strain used in this assay is mlh1 rad18
The panel holds about 79,000 compounds, 15% with a hit somewhere; the sample as a whole holds those more often.
Assay metric: growth inhibition (%)

Compound | Observed
Cc1ccc2c(c1)C1(OC(=O)c3ccccc31)c1ccc(F)cc1O2 (stereo not given) | 18.1
CCCOc1ccc(OCC(=O)c2ccccc2)cc1 | 8
C1CCC(NCCNC2CCCCC2)CC1 | 10.3
COc1cc2[nH]c3c(c2cc1OC)CCN[C@@]31CC[C@@]2(CC3c4c(cc(OC)c(O)c42)CCN3C)C[C@@H]1OC (stereo not given in full) | -9.7
Cc1nc2cccc3ccc4cc5ccccc5c1c4c32 | 14.9

====

Measurement protocol: NCI Yeast Anticancer Drug Screen. Data for the bub3 strain (AID 167)
Assay setup: S. cerevisiae bub3 mutant strain, at 50.0 µM, active compounds read high
The panel holds about 79,000 compounds, 15% with a hit somewhere; the sample as a whole holds those more often.

Compound | growth inhibition [%]
CCOC(=O)c1oc2ccc(OC)c3c2c1CCC3 | 11.6
O=C(CCCCCC(=O)NO)NO | -9.4
O=C(O)c1cccc2c1cc(Br)c1ccccc12 | 15.8
CC(C)(C)NC(=O)Oc1ccc(Br)cc1Br | 9.75
O=C(CN1CCN(c2cccc(Cl)c2)CC1)N1CCc2c([nH]c3ccccc23)C1c1cccnc1 (stereo unspecified) | -2.25
N#CCCC(CC#N)C1([N+](=O)[O-])CCCCC1 (stereo unspecified) | 32.8
O=C(C[n+]1ccccc1CCCO)c1ccc(F)cc1 | 3
CC(=O)C(CCN(C)C)c1ccc2c(c1)CCc1ccccc1-2 (stereo unspecified) | 13.3
CC1(N)CC2CCC1C2 (stereo unspecified) | -21.4
COc1cc(CCCOC(=O)/C=C/c2ccc(O)c(O)c2)cc(O)c1O | -0.8
COC(=O)NN=C1C(C)(C)C(=NNC(=O)OC)C1(C)C | -17.6
Nc1nc2c(ncn2C2OC(COC(=O)c3ccccc3)C(OC(=O)c3ccccc3)C2OC(=O)c2ccccc2)c(=O)[nH]1 (stereo unspecified) | 0.9
COc1cccc(C(=O)O)c1[N+](=O)[O-] | -6.05
CC(C)(C#N)NC(=O)NC(C)(C)C(N)=O | 9.5
Nc1c2cc3c(cc2c[n+]2ccc4ccccc4c12)OCO3 | 43.9
COc1cc2oc(-c3ccc(O)cc3)cc(=O)c2c(OC)c1OC | 17.9
C/C(N=NC(=S)N1CCCCC1C)=C1\C=CC=CN1O (stereo unspecified) | 20.1
C=C(/C=C/CCCC)NC(=O)OCc1ccccc1 | 1.25
CNc1nc2c(C)ccc3nc(N(C)C)nc-3c2n1C | 20.1
COC(=O)N/N=C(/CC1(O)C(=O)Nc2ccc([N+](=O)[O-])cc21)c1ccccc1 (stereo unspecified) | 0.35
CC(O)/C=C/C(CCC(C)CO)C(C)C (stereo unspecified) | -25.9

====

# maps each entry to its growth inhibition
Measurement protocol: NCI Yeast Anticancer Drug Screen. Data for the mec2-1 strain (AID 157)
Assay setup: S. cerevisiae mec2-1 strain, at 50.0 µM, active compounds read high
About 79,000 compounds went through this panel and 15% of them were active in at least one assay; those are over-represented in the sample as a whole.
Assay metric: growth inhibition (%)

Molecule | Assay metric | Observed
Cc1cc(O)c(C(c2ccc3c(c2)OCO3)c2c(O)cc(C)[nH]c2=O)c(=O)[nH]1 | growth inhibition | 17.2
CCOC(=O)/C=C1/Nc2cc(F)c(F)cc2NC1=O | growth inhibition | 14.1
CCOC(=O)CNC(=O)C(Cc1ccccc1)NC(=O)CNC(=O)OCc1ccccc1 (stereo not drawn) | growth inhibition | 8.6

====

Measurement protocol: NCI Yeast Anticancer Drug Screen. Data for the mlh1 rad18 strain (AID 175)
Assay setup: S. cerevisiae mlh1 rad18 strain growth inhibition; at 50.0 µM; active compounds read high
The panel holds about 79,000 compounds, 15% with a hit somewhere; the sample as a whole holds those more often.

Molecule | Units of measure | growth inhibition
C(=N\c1nc2ccccc2s1)/c1cccs1 | % | -19.4
CCN(CC)c1ccc(N=Nc2ccc([N+](=O)[O-])cc2OC(=O)/C=C/c2ccccc2)c(OC(=O)/C=C/c2ccccc2)c1 | % | -22.8
COc1cc(Nc2cnc3ccc(C(F)(F)F)cc3n2)cc(OC)c1OC | % | -3.5
O=C(Nn1c(-c2ccccc2)nc2ccccc2c1=O)c1ccc([N+](=O)[O-])cc1 | % | 13.9
COc1ccc(/C=N/NC(=O)CCCCCCCCC(=O)N/N=C/c2ccc(OC)c(OC)c2)cc1OC | % | -12.5
CC(C)CC(=O)NS(=O)(=O)c1ccccc1 | % | -22.2
O=C(Oc1ccc(OC(=O)c2ccc([N+](=O)[O-])cc2)cc1)c1ccccc1 | % | 5.25
O=C(Cc1ccccc1)c1ccc(N2CCOCC2)cc1 | % | 25.7
COc1ccccc1N/C(=C\C(=O)C(=O)NC12CC3CC(CC(C3)C1)C2)c1ccccc1 | % | 14.2
O=[N+]([O-])c1ccc(/C=C2/c3ccccc3-c3nc4ccccc4cc32)cc1 | % | 20.8
O=C(O)c1nc(-c2ccc(S(=O)(=O)O)cc2)[nH]c1C(=O)O | % | -3.6
CCCCCCCNC(=O)C(Cl)Cl | % | 7.4
CC(=O)c1c[nH]cc1CO | % | -7.75
COc1cc(/C=N/NC(N)=S)cc(OC)c1 | % | -11.8
CC1(N)CC2CCC1C2 (stereo unspecified) | % | 2.75
CCCCCOP(=O)(OCCCCC)C(c1ccccc1)c1ccccc1 | % | -11.9
CC(=O)[C@H]1CC[C@H]2[C@@H]3CC=C4C=CCC[C@@H]4[C@H]3CC[C@]12C | % | 24.4
Cc1cccc(-n2c(CC#N)n[nH]c2=S)c1 | % | 5.45
COc1cc(C2N3CCCN2CC3)cc(OC)c1OC (stereo unspecified) | % | -2.55
O=C(OCOC(=O)c1ccccc1)c1ccccc1 | % | -6.55
O=C1NC(CN2CCC(O)CC2)C(=O)NC1CN1CCC(O)CC1 (stereo unspecified) | % | -0.35
Cc1nc2ccccc2o1 | % | -10.4
COc1cc(/C=C(\C)c2ccc3c(c2)OCO3)cc(OC)c1OC | % | -5.85
CCOC(OCC)c1ccccc1OC | % | -1.1
CCCCCCC1C=CC(CCCCCCCC(=O)O)C(/C=C/CCCCCCCC(=O)O)C1CCCCCC (stereo unspecified) | % | 6.85
CC(=O)C1CN(C)CCC1=O (stereo unspecified) | % | 16.9

====

Measurement protocol: NCI Yeast Anticancer Drug Screen. Data for the rad50 strain (AID 155);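 further: 0% = growth of vehicle-only cultures of the same strain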
Assay setup: S. cerevisiae rad50 strain growth inhibition; at 50.0 µM; active compounds read high
This is part of a sample that, as a whole, favours compounds with a hit. Of some 79,000 tested, about 15% had one in any assay.

Smiles structure | growth inhibition, %
Cc1csc2nc3[nH]ncc3c(=O)n12 | -21.6
C=CCc1ccc(OC(=O)Nc2ccc(S(=O)(=O)N(C)C)cc2)c(OC)c1 | 26.6
CNc1ccc(C(=O)O)cc1C(F)(F)F | -0.35
c1ccc(-c2nc(-c3ccccc3)c(-c3ccccc3)[nH]2)cc1 | -0.85

====

Measurement protocol: NCI Yeast Anticancer Drug Screen. Data for the bub3 strain (AID 167)
Assay setup: S. cerevisiae bub3 mutant strain, at 50.0 µM, active compounds read high
The panel holds about 79,000 compounds, 15% with a hit somewhere; the sample as a whole holds those more often.

Compound | growth inhibition, %
COc1cc2c(cc1OC)C(=O)C(C1CCCCC1)NC2 (stereo unspecified) | 16.1
CCC(=O)OC1(C(=O)OC)CCN(C)CC1 | 17.8
O=C(CI)Nc1ccc(Cl)c(Cl)c1 | 99.8
O=C(/C=C/c1ccccc1)c1cccc([N+](=O)[O-])c1 | 41.9
O=C(COc1ccc(Cl)cc1)NC(CO)(CO)CO | 17.1
Clc1cccc(C2N3CCCCC3[C@@H]3c4[nH]c5ccccc5c4CCN23)c1 (stereo partly specified) | 10.9
CS(=O)(=O)C(c1nc2n(c1O)C(=N)N=N2)c1nc2n(c1O)C(=N)N=N2 (stereo unspecified) | -5.2
N=C(N)n1ncc2c1CCCC2=O | 6.1
CC(C)OP(=O)(OC(C)C)/C(N)=N/Nc1ccc([N+](=O)[O-])cc1 | -3.95
COc1ccc(C2COc3c(ccc(OC)c3OC)C2=O)cc1OC (stereo unspecified) | -0.5
NC(=O)CC1(C(=O)O)c2ccccc2-c2ccccc21 | 14.6
O=C1CS(=O)(=O)CN1c1ccc(Cl)c(Cl)c1 | 7
CCCCC(CC)OC(=O)Cc1ccccc1 (stereo unspecified) | -4.45
CC1COC(c2ccc(Cl)cc2Cl)O1 (stereo unspecified) | 2.75
COC(=O)C(Br)(C(=O)OC)C(c1ccccc1)c1ccccc1 | 41.8
CCCC(F)C(=O)OCC (stereo unspecified) | 10
Nc1nnc(Cc2cccc3ccccc23)o1 | -15.6
CCOC(=O)N1CCN(P(=O)(c2ccccc2)N2CCN(C(=O)OCC)CC2)CC1 | -0.75
NC1(c2ccccc2)CON=C(c2ccccc2)C1 (stereo unspecified) | 1.4
Cc1cn(C2CC(O)C(COC(=O)C(C)(C)C)O2)c(=O)[nH]c1=O (stereo unspecified) | -18.5
CCC(C)(C)N | 9.15
CN(C)/C=C/c1ccnc2c1C(=O)c1ccccc1C2=O | 75.5
CC1=Nc2nc3ccccc3n2C(C)(C)C1 | -0.2
N=C(N)SCCSC(=N)N | -16.4
CC(=O)NC(Cc1ccccc1)C(=O)Nc1ccc(C)cc1 (stereo unspecified) | 11.4
O=S(=O)(O)CNc1ccc(Cl)cc1 | -23.1
